Values were extracted from ChEMBL document CHEMBL5252631.

Experiment Notes: Substrate activity at ADH101 (unknown origin) assessed as specific enzyme activity using NADH as cofactor at 2.5 to 10 mM measured for 30 mins in presence of 20% hexane-Tris HCL buffer by UV-Vis spectroscopy analysis
Measurement Parameters: Homo sapiens, dose 2.5-10 mM
Readout: Activity (nmol/min/mg)
Unit nmol/min/mg implied. Number only.

These solved cases illustrate the format of a correct answer.
>>> measured_number("CC(=O)c1ccc(C[C@H](N)C(=O)O)cc1")
10.2
>>> measured_number("O=C(CCl)c1ccc(F)c(F)c1")
87.1

// query Data request, read-out Activity, for CCc1ccc(OC)c(C(C)=O)c1
// result 52.9

// query Data request, read-out Activity, for CC(=O)c1cncnc1
// result 45.2

// query Data request, read-out Activity, for CC(=O)c1ccc(Br)cc1O
// result 10

// query Data request, read-out Activity, for CC(=O)c1cc[nH]n1
// result 5.6

// query Data request, read-out Activity, for CC(=O)c1ccc(Br)cc1F
// result 57.7

// query Data request, read-out Activity, for CC(=O)Cc1ccccc1
// result 22.2

// query Data request, read-out Activity, for CC(=O)c1ccccc1
// result 54.1

// query Data request, read-out Activity, for CC(=O)c1ccc(F)nc1
// result 51

// query Data request, read-out Activity, for CC(=O)c1ccc(B2OC(C)(C)C(C)(C)O2)cc1
// result 465

// query Data request, read-out Activity, for CC(=O)c1ccc([N+](=O)[O-])cc1
// result 130

// query Data request, read-out Activity, for CC(=O)c1cnccn1
// result 53.2

// query Data request, read-out Activity, for CC(=O)c1ccc(Br)c(F)c1
// result 103

// query Data request, read-out Activity, for CC(=O)c1ccc(Br)nc1
// result 33.2

// query Data request, read-out Activity, for O=C(CBr)c1ccccc1
// result 89.2

// query Data request, read-out Activity, for O=C(c1ccccc1)C(F)(F)F
// result 46.2

// query Data request, read-out Activity, for CC(=O)c1cccc(C#N)c1
// result 57.4

// query Data request, read-out Activity, for CC(=O)c1cccnc1
// result 34

// query Data request, read-out Activity, for O=C1CN2CCC1CC2
// result 85.3

// query Data request, read-out Activity, for CC(=O)c1ccc2ccccc2c1
// result 37

// query Data request, read-out Activity, for CC(=O)c1cc(F)ccc1O
// result 42.8
